- target.of.assay: Neu5Ac(a2-6)Gal(b1-4)GlcNAc(b1-6)[Gal(b1-3)GlcNAc(b1-3)]Gal(b1-4)Glc
- assay.name: glycan array binding signal (z-score within array); higher = stronger binding
- setup.conditions: glycan notation: IUPAC condensed, linker removed
About 410 targets per protein were measured; listed, in parts, are those with the strongest signals and a random draw of the rest.
In this section, each of the binders is paired with its reported glycan array binding signal (z-score).
Keep it simple and answer with nothing but the number.

As a guide, the following entries are already answered.
Gal 1 (Mus musculus), P16045 (protein) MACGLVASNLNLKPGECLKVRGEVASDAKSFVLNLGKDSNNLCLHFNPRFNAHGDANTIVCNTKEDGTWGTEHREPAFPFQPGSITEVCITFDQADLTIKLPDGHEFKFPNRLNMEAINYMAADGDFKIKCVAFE = 0.027
HFR-3 (Triticum aestivum) (protein) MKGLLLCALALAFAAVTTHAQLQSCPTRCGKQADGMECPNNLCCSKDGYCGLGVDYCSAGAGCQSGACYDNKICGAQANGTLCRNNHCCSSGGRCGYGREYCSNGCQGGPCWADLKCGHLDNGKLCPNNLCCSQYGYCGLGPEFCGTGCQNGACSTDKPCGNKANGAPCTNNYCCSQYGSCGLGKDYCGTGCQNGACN = -0.251
Gal 4 (Mus musculus), P56470 (protein) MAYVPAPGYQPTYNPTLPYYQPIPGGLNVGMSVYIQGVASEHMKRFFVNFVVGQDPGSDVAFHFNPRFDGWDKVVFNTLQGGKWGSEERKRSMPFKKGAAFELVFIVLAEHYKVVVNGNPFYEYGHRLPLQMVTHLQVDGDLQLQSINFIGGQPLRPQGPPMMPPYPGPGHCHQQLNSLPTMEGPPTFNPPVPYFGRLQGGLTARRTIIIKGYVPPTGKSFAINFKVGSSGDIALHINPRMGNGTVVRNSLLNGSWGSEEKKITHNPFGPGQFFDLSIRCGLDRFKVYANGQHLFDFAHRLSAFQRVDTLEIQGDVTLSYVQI = -0.295
Gal 2 (Homo sapiens), P05162 (protein) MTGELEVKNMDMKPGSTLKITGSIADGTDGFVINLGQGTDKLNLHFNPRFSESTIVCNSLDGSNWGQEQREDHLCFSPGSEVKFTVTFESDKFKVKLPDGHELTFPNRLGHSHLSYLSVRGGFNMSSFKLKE = -0.21

Recorded result, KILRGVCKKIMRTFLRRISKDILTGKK [NK2 (Sus scrofa)] , glycan array binding signal (z-score): -0.41

glycan array binding signal (z-score) in this record for Tamarinin (protein) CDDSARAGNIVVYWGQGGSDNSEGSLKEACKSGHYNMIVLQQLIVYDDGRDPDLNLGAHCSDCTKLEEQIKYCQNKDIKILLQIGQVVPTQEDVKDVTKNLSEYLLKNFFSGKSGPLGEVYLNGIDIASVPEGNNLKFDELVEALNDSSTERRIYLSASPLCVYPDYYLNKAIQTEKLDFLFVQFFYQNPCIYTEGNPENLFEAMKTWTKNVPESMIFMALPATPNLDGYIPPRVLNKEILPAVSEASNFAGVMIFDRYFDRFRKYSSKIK : -0.361

Recorded result, EULS2 M4 (Oryza sativa) (protein) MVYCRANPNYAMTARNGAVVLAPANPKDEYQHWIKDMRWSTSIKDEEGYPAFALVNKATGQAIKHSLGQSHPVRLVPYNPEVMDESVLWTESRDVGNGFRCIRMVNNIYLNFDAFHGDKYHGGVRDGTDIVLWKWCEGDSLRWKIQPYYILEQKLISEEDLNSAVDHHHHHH , glycan array binding signal (z-score): -0.428

GET /value?item= PhypaEULS3 (Physcomitrella patens) (protein) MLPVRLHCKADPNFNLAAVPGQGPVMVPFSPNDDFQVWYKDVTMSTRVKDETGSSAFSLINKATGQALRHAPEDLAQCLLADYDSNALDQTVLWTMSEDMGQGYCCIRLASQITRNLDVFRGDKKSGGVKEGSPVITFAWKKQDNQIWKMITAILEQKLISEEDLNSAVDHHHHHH &field=glycan array binding signal (z-score) returns 0.339

Where do the numbers come from? From the supplement of paper PMC8728848.
